Test: chemical genetic growth profiling, strain panel (AID 1159580);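 note: tested at 20 µM; growth read once vehicle control cultures reached saturation at 30 °C; 1 = growth at the plate median or of vehicle wells; lower values mean less growth of the strain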
Conditions: S. cerevisiae deletion strains, growth OD, locus YOR265W, strain rbl2, stronger effect = lower value
Screen size: about 5,500 compounds; about 2,000 (36%) were called active. Not shown: some 18% with an inconclusive outcome. The list shows a part of the results.
This section presents molecules with their documented normalized growth values.
Just the number, please.

Example entries begin here.
{"columns": ["molecule", "normalized growth"],
 "data": [
  ["CCCCCCc1ccc(O)cc1O", 0.957],
  ["CN1CCOC(c2ccccc2)c2ccccc2C1 (configuration not stated)", 0.985],
  ["O=C1CC[C@]23C=CC(=O)NCCCCNCCCNC(=O)/C=C/c4ccc(c2c4)O[C@@H]3C1", 0.991],
  ["NCCc1ccc(O)cc1", 1],
  ["CC1=C2C(=CO[C@H](C)[C@H]2C)C(=O)C(C(=O)O)=C1O", 0.967],
  ["CCCCCCCCCc1ccc(O)cc1", 0.0564]
]}

Exam item: I am curious: what normalized growth value has been reported for NS(=O)(=O)c1cc2c(cc1C(F)(F)F)NCNS2(=O)=O ?
Marked response: 0.993

Exam item: # lookup: normalized growth of CN(N=O)C(=O)N[C@@H]1[C@@H](O)[C@H](O)[C@@H](CO)O[C@@H]1O
Marked response: 1

Exam item: Given the molecule COC(=O)C1=C(C)NC(C)=C(C(=O)OCCN(C)Cc2ccccc2)C1c1cccc([N+](=O)[O-])c1 (configuration not stated) , what is its reported normalized growth?
Marked response: 0.999

Exam item: Need normalized growth of COC(=O)C1=C(C)NC(C)=C(C(=O)OC)C1c1ccccc1[N+](=O)[O-] , thanks.
Marked response: 0.903

Exam item: # get_value(readout='normalized growth', item= OC1C(O)C(O)C(O)C(O)C1O (configuration not stated) )
Marked response: 1

Exam item: Fill in: normalized growth of Nc1nc(N)c2nc(-c3ccccc3)c(N)nc2n1 is ___
Marked response: 0.996

* * *

Test: chemical genetic growth profiling, strain panel (AID 1159580);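 note: tested at 20 µM; growth read once vehicle control cultures reached saturation at 30 °C; 1 = growth at the plate median or of vehicle wells; lower values mean less growth of the strain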
Conditions: S. cerevisiae deletion strains, growth OD, locus YLR342W, strain FKS1 (second series), stronger effect = lower value
Among all 5,500 compounds or so, about 2,000 (36%) were called active. Not shown: some 18% with an inconclusive outcome. Some of the results follow.
assayMetric: normalized growth
Give a plain numeric answer without units written out.

{"columns": ["compound", "assayValue"],
 "data": [
  ["C=CCCCCCCCCCCCC(O)CC(O)CO (centres undefined)", 0.756],
  ["COc1ccc2c(=O)cc(-c3ccccc3OC)oc2c1", 0.716],
  ["CC(=O)Oc1cc(OC(C)=O)c2c(=O)c(-c3ccccc3)coc2c1", 0.966],
  ["CC(=O)O[C@H]1C[C@H](O[C@H]2[C@@H](O)C[C@H](O[C@H]3[C@@H](O)C[C@H](O[C@H]4CC[C@@]5(C)C(CCC6C5C[C@@H](O)[C@]5(C)[C@@H](C7=CC(=O)OC7)CC[C@]65O)C4)O[C@@H]3C)O[C@@H]2C)O[C@H](C)[C@H]1O[C@@H]1O[C@H](CO)[C@@H](O)[C@H](O)[C@H]1O (some centres undefined)", 1.02],
  ["CC1NC(=O)NC1=O (centres undefined)", 1],
  ["CC(=O)Oc1cc(-c2coc3cc(OC(C)=O)c(OC(C)=O)c(OC(C)=O)c3c2=O)cc(OC(C)=O)c1OC(C)=O", 0.659],
  ["CC1(C)O[C@@H]2CC3C4CCC5=CC(=O)C=C[C@]5(C)[C@@]4(F)[C@@H](O)C[C@]3(C)[C@]2(C(=O)CO)O1 (some centres undefined)", 1.01],
  ["O=c1c(-c2cc(O)c(O)c(O)c2)coc2cc(O)c(O)c(O)c12", 0.648],
  ["COc1ccc(-c2cc(=O)c3c(OC(C)=O)cc(OC(C)=O)cc3o2)cc1", 1.01],
  ["CSc1ccc2c(c1)C(N1CCN(C)CC1)Cc1ccccc1S2 (centres undefined)", 0.2]
]}

Exam item: For COc1ccc(-c2coc3cc(O)cc(O)c3c2=O)cc1 , what is its reported normalized growth?
Marked response: 0.289

Exam item: # lookup: normalized growth of COc1cc2c3cc1Oc1cc(ccc1O)C[C@@H]1c4c(cc(OC)c(O)c4Oc4ccc(cc4)C[C@@H]3N(C)CC2)CC[N+]1(C)C
Marked response: 0.999

Exam item: What value of normalized growth has been reported for the following compound? COc1ccc(-c2coc3cc(OC)cc(O)c3c2=O)cc1
Marked response: 0.859

Exam item: Which measured normalized growth value corresponds to C=CCc1ccccc1OCC(O)CNC(C)C (centres undefined) ?
Marked response: 0.974

Exam item: Param item = COc1cc(O)c2c(=O)c(-c3ccc(O)cc3)coc2c1 ; retrieve measured normalized growth.
Marked response: 0.701

Exam item: Record request: normalized growth value, item CCC(CCC(C)[C@H]1CCC2C3CC=C4C[C@@H](O)CC[C@]4(C)C3CC[C@@]21C)C(C)C (some centres undefined)
Marked response: 1.08

Exam item: Value lookup for normalized growth; key = CC(=O)N(O)CCCCCNC(=O)CCC(=O)N(O)CCCCCNC(=O)CCC(=O)N(O)CCCCCN
Marked response: 0.854

Exam item: Entry O=C1c2c(O)ccc(O)c2C(=O)c2c(NCCNCCO)ccc(NCCNCCO)c21 : reported normalized growth = ?
Marked response: 0.871

Exam item: Could you share which normalized growth value was measured for O=C(/C=C/c1ccccc1)c1ccc(O)cc1 ?
Marked response: 0.569

* * *

Assay: chemical genetic growth profiling, strain panel (AID 1159580);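 note: tested at 20 µM; growth read once vehicle control cultures reached saturation at 30 °C; 1 = growth at the plate median or of vehicle wells; lower values mean less growth of the strain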
Settings: S. cerevisiae deletion strains, growth OD, locus YIL066C, strain RNR3, stronger effect = lower value
About 2,000 (36%) of roughly 5,500 compounds were called active. Roughly 18% stayed inconclusive and do not appear here. The list shows a part of the results.
assayMetric: normalized growth

{"columns": ["compound", "normalized growth"],
 "data": [
  ["C[C@@H]1CC[C@@]2(OC1)OC1C(O)C3C4CC[C@H]5C[C@H](O[C@@H]6O[C@H](CO)[C@H](O[C@@H]7O[C@H](CO)[C@@H](O)[C@H](O[C@@H]8OC[C@@H](O)[C@H](O)[C@H]8O)[C@H]7O[C@@H]7O[C@H](CO)[C@H](O)[C@H](O[C@@H]8O[C@H](CO)[C@@H](O)[C@H](O)[C@H]8O)[C@H]7O)[C@H](O)[C@H]6O)[C@H](O)C[C@]5(C)C4CC[C@]3(C)C1[C@@H]2C (some centres undefined)", "0.0505 (active)"],
  ["CC1(C)O[C@@H]2CC3C4C[C@H](F)C5=CC(=O)C=CC5(C)C4C(O)CC3(C)[C@]2(C(=O)CO)O1 (some centres undefined)", "1.02 (inactive)"],
  ["CCCN1C[C@H](CSC)C[C@@H]2c3cccc4[nH]cc(c34)C[C@H]21", "1.01 (inactive)"]
]}

Now examine the next entry.
Exam item: What value of normalized growth has been reported for the following compound? CC(=O)O[C@H]1C[C@H](O[C@H]2[C@@H](O)C[C@H](O[C@H]3[C@@H](O)C[C@H](O[C@H]4CC[C@@]5(C)C(CCC6C5C[C@@H](O)[C@]5(C)[C@@H](C7=CC(=O)OC7)CC[C@]65O)C4)O[C@@H]3C)O[C@@H]2C)O[C@H](C)[C@H]1O[C@@H]1O[C@H](CO)[C@@H](O)[C@H](O)[C@H]1O (some centres undefined)
Marked response: 1.01 (inactive)

* * *

Experiment: chemical genetic growth profiling, strain panel (AID 1159580);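 note: tested at 20 µM; growth read once vehicle control cultures reached saturation at 30 °C; 1 = growth at the plate median or of vehicle wells; lower values mean less growth of the strain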
Settings: S. cerevisiae deletion strains, growth OD, locus YLR342W, strain FKS1
Screen size: about 5,500 compounds; about 2,000 (36%) were called active. Roughly 18% stayed inconclusive and do not appear here. Rule as the data show it: active = normalized growth mostly below about 0.91 (no sharp cut-off); inconclusive = no clear call, values can overlap the other calls; inactive = mostly above about 0.92. The list shows a part of the results.
Thanks in advance; please answer with one of these: active, inactive

Use the examples below as a reference point.
{"columns": ["compound", "discreteLabel"],
 "data": [
  ["COc1ccc(-c2cc(=O)c3cc(OC)ccc3o2)cc1", "inactive"],
  ["CCCCCCCCCc1ccc(O)cc1", "active"],
  ["O=c1cc(-c2ccc(O)cc2)oc2ccc(O)cc12", "inactive"],
  ["O=c1cc(-c2ccc(O)c(O)c2)oc2ccccc12", "inactive"],
  ["CC(=O)[C@H]1CCC2C3CC=C4C[C@@H](OC(=O)CCC(=O)O)CC[C@]4(C)C3CC[C@@]21C (stereo partly specified)", "inactive"]
]}

Exam item: Short answer needed: outcome of this test for C=C1C(N)CC2CC1C2(C)C (stereo unspecified) ?
Marked response: inactive

Exam item: Short answer needed: outcome of this test for COc1ccc(-c2cc(=O)c3c(O)c(OC)c(OC)c(OC)c3o2)cc1 ?
Marked response: inactive

Exam item: Each compound tested received a call. Report the one for O=C1CCc2cc(OCCCCc3nnnn3C3CCCCC3)ccc2N1 .
Marked response: inactive
